measurement target: human ether-à-go-go-related gene (hERG) potassium channel (human);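 note: peak tail current of the secondary pulse compared with the same well before compound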
Sequence (Q12809 whole entry, looked up): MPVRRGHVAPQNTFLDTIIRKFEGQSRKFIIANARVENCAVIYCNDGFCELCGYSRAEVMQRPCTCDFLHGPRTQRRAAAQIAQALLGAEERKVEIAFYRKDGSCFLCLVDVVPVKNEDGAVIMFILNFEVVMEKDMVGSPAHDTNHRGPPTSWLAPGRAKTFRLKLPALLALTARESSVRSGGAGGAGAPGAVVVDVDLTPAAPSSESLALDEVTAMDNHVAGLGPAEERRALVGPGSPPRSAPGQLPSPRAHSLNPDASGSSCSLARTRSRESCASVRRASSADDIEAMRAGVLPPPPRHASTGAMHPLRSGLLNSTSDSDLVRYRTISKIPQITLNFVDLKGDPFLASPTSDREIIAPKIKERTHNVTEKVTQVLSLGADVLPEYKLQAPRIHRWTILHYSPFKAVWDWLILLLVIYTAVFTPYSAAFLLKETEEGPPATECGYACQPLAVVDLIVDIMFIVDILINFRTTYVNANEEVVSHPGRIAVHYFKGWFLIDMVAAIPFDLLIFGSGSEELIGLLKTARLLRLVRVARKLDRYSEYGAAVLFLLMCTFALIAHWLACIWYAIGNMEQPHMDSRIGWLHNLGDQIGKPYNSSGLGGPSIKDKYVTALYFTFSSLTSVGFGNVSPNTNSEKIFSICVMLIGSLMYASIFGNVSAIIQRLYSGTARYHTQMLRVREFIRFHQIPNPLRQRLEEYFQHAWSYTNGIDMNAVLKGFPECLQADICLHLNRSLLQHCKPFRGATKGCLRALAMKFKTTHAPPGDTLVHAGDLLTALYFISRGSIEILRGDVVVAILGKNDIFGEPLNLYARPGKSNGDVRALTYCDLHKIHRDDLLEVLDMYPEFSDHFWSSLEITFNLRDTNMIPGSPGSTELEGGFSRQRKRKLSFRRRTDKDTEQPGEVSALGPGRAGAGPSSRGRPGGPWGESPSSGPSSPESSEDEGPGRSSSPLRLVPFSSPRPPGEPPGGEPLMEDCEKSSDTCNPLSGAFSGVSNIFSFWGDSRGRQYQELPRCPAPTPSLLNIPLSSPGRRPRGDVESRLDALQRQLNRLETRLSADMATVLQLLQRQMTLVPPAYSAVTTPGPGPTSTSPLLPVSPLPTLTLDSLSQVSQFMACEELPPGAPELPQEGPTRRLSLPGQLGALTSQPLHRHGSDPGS
test details: primary screen, population patch clamp on CHO cells stably expressing hERG; higher = less effect of the substance
About 14,000 (4.5%) of roughly 310,000 compounds showed an effect of 50% or more. The effect is printed as a negative number. Only a selection was taken, and strong results are over-represented in it overall.
assay endpoint: hERG current change (%, negative = inhibition) at 10uM (%)

O=C(Nc1cc(C(F)(F)F)ccc1N1CCOCC1)c1ccccc1F	-4.2
CCOC(=O)C1CCN(c2ncnc3c2cnn3C)CC1	6.3
O=C1CC(N2CCN(c3nc4ccccc4s3)CC2)C(=O)N1c1ccc(F)cc1 (stereo not drawn)	-53.5
CCc1ccc2nc(N(CCCN(C)C)C(=O)c3ccc(C(=O)c4ccccc4)cc3)sc2c1.Cl	-12.5
O=C(COC(=O)c1cccc(OC(F)F)c1)NC(=O)NC1CCCCC1	11.1
CCOc1cc(/C=C2\SC(=N)N(c3nonc3N)C2=O)ccc1OCC(N)=O	7.01

###

Quick reference for hERG current change (%, negative = inhibition) at 10uM among some compounds
measurement target: human ether-à-go-go-related gene (hERG) potassium channel (human);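 note: peak tail current of the secondary pulse compared with the same well before compound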
test details: primary screen, population patch clamp on CHO cells stably expressing hERG; higher = less effect of the substance
Among all 310,000 compounds or so, about 14,000 (4.5%) showed an effect of 50% or more. The effect is printed as a negative number. The full list was thinned out, with strong results kept by preference.
assay endpoint: hERG current change (%, negative = inhibition) at 10uM

Cl.Clc1ccc(CN2C3=NCCCN3c3ccccc32)cc1	-75.1%
CC(/C=C/c1ccco1)=N/NC(=O)OC(C)(C)C	3.46%
CCC(C)Sc1nc2c(c(=O)[nH]c(=O)n2C)n1Cc1ccc(Cl)cc1 (centres unmarked)	1.92%
Cc1ccc(Nc2nc3ccccc3n3cnnc23)cc1C	15.5%
O=C(c1ccccc1)c1cn[nH]c1-c1ccccc1O	5.65%
O=C(Nc1ccc2ccccc2c1)N1CCN(c2ncccc2C(F)(F)F)CC1	-7.58%
CS(=O)(=O)N1CCN(c2nc(-c3ccc(F)cc3)cs2)CC1	-77.2%
O=C1c2ccccc2N(Cc2ccc(Cl)cc2)C2=NCCN12	-13.5%
CCOC(=O)C(CC)Sc1nc2c(c(=O)[nH]c(=O)n2C)n1CCc1ccccc1 (centres unmarked)	-67.8%
COc1ccc(NC(=O)CSc2nnc(-c3ccccc3)n2N)cc1	-4.04%
CCNc1nc(OC)nc(SCC(=O)Nc2ccccc2)n1	17.2%
CN1C(=O)c2ccc(C(=O)Nc3ccccc3O)cc2C1=O	4.6%
O=C(N/N=C/c1ccco1)c1cc([N+](=O)[O-])cc([N+](=O)[O-])c1	6.85%
CCOC(=O)C(C)Sc1nc2c(c(=O)[nH]c(=O)n2C)n1C/C=C(/C)Cl (centres unmarked)	-72.8%
CC(C)(C)NC(=O)C(c1ccccn1)N(C(=O)C1CSC(=O)C1)c1ccc(F)cc1 (centres unmarked)	6.26%
Fc1ccccc1CSc1ncnc2sc3c(c12)CCCC3	2.75%
Cc1c(C(N)=O)sc2nc(-c3ccccc3)cn12	1.01%
O=C1CCCc2ccccc2N1Cc1ccc(Cl)cc1Cl	-18.2%
C/C(CC(=O)Nc1ccc([N+](=O)[O-])cc1)=N/NC(=O)C1C2CCCCC21 (centres unmarked)	-21.7%
O=C(NCc1ccc(Cl)cc1)C(=O)Nc1nccs1	20.7%
NC(=O)CC1NC(=O)c2cc([N+](=O)[O-])cc(I)c2OCCC(C(N)=O)NC(=O)[C@@H]2CCCN2C1=O (some centres unmarked)	6.79%
CC(=O)Nc1ccn(-c2ccccc2)n1	8.89%
COc1ccccc1NS(=O)(=O)/C=C/c1ccccc1	-16.8%
